- Tested on: Rattus norvegicus
- assay_details: Neurotoxicity in albino Sprague-Dawley rat at 50 mg/kg, po
- Type: toxicity, organism-based
- Set-up: dose 50 mg/kg, route oral
- run_conditions: in vivo
quantity_name: Activity

Example cases with answers are listed next.
>  <sample_smiles>
CC1(C)C(C)(C)C1(C)C(=O)O

>  <Activity>
Not Active

$$$$
>  <sample_smiles>
CC1(C)C(C)(C)C1(F)C(N)=O

>  <Activity>
Not Active

$$$$
>  <sample_smiles>
CNC(=O)C1(F)C(C)(C)C1(C)C

>  <Activity>
100%

$$$$
>  <sample_smiles>
CC1(C)C(C)(C)C1(F)C(=O)O

>  <Activity>
Not Active

$$$$
>  <sample_smiles>
CC1(C)C(C)(C)C1(C)C(N)=O

>  <Activity>
Not Active

$$$$

Name the recorded Activity for `CC1(C)C(C)(C)C1(Cl)C(N)=O` . Not Active

* * *

- Tested on: Mus musculus
- assay_details: Anticonvulsant activity in ip dosed CF1 albino mouse assessed as protection against 32 mA current-induced seizure by 6Hz psychomotor seizure test
- Assay type: functional
quantity_name: ED50 (mg/kg)
Answers are plain numbers, in mg/kg.

>  <molecule>
CC1(C)C(C)(C)C1(F)C(N)=O

>  <ED50, mg/kg>
57

$$$$
>  <molecule>
CC1(C)C(C(N)=O)C1(C)C

>  <ED50, mg/kg>
72

$$$$
>  <molecule>
CC[C@H](C(N)=O)N1CCCC1=O

>  <ED50, mg/kg>
19

$$$$

Name the recorded ED50 for CCCC(CCC)C(N)=O [VALPROMIDE] . 57

* * *

- assay_details: Neurotoxicity in ip dosed CF1 albino mouse assessed as minimal motor impairment
- Assay type: toxicity, organism-based
- run_conditions: CF1, mouse, in vivo
quantity_name: TD50 (mg/kg)
Answers are plain numbers, in mg/kg.

Name the recorded TD50 for `CC1(C)C(C)(C)C1(F)C(N)=O` . 120

* * *

- Test system: Rattus norvegicus
- assay_details: Anticonvulsant activity in albino Sprague-Dawley rat assessed as protection against maximal electroshock-induced seizures at 50 mg/kg, po after 30 mins
- Type: functional
Calls of active or inactive are those of the source. The calls are words filed in the database; no cut-off is given here.
quantity_name: Activity

Example cases with answers are listed next.
>  <sample_smiles>
CC1(C)C(C)(C)C1(Cl)C(N)=O

>  <Activity>
25%

$$$$
>  <sample_smiles>
CC1(C)C(C)(C)C1(F)C(N)=O

>  <Activity>
inactive

$$$$
>  <sample_smiles>
CC1(C)C(C)(C)C1(F)C(=O)O

>  <Activity>
inactive

$$$$
>  <sample_smiles>
CC1(C)C(C)(C)C1(C)C(N)=O

>  <Activity>
inactive

$$$$

We now examine a further molecule.
Name the recorded Activity for `CC1(C)C(C)(C)C1(C)C(=O)O` . inactive

* * *

- Tested on: Rattus norvegicus
- assay_details: Anticonvulsant activity in albino Sprague-Dawley rat assessed as protection against scMet-induced seizures at 50 mg/kg, po after 2 hrs
- Assay type: functional
Calls of active or inactive are those of the source. No cut-off for these calls is given here.
quantity_name: Activity

Example cases with answers are listed next.
>  <sample_smiles>
CC1(C)C(C)(C)C1(C)C(N)=O

>  <Activity>
25%

$$$$
>  <sample_smiles>
CC1(C)C(C)(C)C1(F)C(=O)O

>  <Activity>
inactive

$$$$
>  <sample_smiles>
CC1(C)C(C)(C)C1(F)C(N)=O

>  <Activity>
75%

$$$$
>  <sample_smiles>
CC1(C)C(C)(C)C1(Cl)C(N)=O

>  <Activity>
25%

$$$$
>  <sample_smiles>
CNC(=O)C1(F)C(C)(C)C1(C)C

>  <Activity>
inactive

$$$$

We now examine a further molecule.
Name the recorded Activity for `CC1(C)C(C)(C)C1(C)C(=O)O` . inactive
